Attribution: patent US20250092065A1

System: Target C
Test method notes: RT-qPCR canonical junction panel assay, Target C mRNA
Assay type: cell-based
Test conditions: Table 4, read-out: Target C IC50 (decrease in CJ mRNA levels)
pIC50: −log10 of the molar value. Counter-ions that a name gives are not always drawn.
Attribute measured: pIC50

Illustrative cases are given below, each with its answer.
INSERT INTO measurements (molecule, result) VALUES
  ('Cc1c(O)c(-c2nc(-c3c[nH]nn3)c3cc(N4CCNCC4)ccc3n2)cc2cn(C)nc12 [Compound 538, hydrochloride]', '5.00 to 6.00'),
  ('Cc1cc2nc(-c3ccc4nc(N5CCC(NC(C)(C)C)C5)ccc4n3)cn2c(C)n1 (stereo not drawn)', '< 5.00'),
  ('Cc1c(O)c(-c2ccc3nc(N4CCC(NCC5CC5)C4)ccc3n2)cc2cn(C)nc12 (stereo not drawn)', '6.00 to 7.00'),
  ('Cn1cc2cc(-c3ncc4cc(N5CCC(N6CCC6)CC5)ccc4n3)cc(F)c2n1', '5.00 to 6.00');

Lab note: molecule Cc1nc2cc(O)c(-c3ccc4nc(N5CCN[C@@H](C)C5)ccc4n3)cc2o1 tested on Target C; recorded pIC50 was 5.00 to 6.00

Measured pIC50 (Target C), entry CNc1nc(-c2cc3cn(C)nc3c(C)c2O)nc2ccc(N3CCNCC3)cc12 : < 5.00

I looked up CNC(=O)c1nc(-c2cc3cn(C)nc3c(F)c2O)nc2ccc(N3C[C@@H](C)N[C@H](C)C3)cc12 (single isomer, unassigned) and its pIC50 for Target C was 5.00 to 6.00

With Target C as the test system, C[C@@H]1CN(c2cc(F)c3nc(-c4cc(F)c5nn(C)cc5c4)ccc3c2)C[C@H](C)N1 showed pIC50 of 5.00 to 6.00

Recorded pIC50 for C[C@H]1C[C@H](c2ccc3nc(-c4cc5cn(C)nc5c(F)c4O)ccc3n2)CCN1 (single isomer, unassigned) on Target C was 6.00 to 7.00

The molecule CCc1nc2cc(O)c(-c3ccc4nc(N5CCC(NC(C)(C)C)C5)ccc4n3)cc2o1 (stereo not drawn) , tested on Target C, showed pIC50 of 5.00 to 6.00

Entry Cc1nc2c(C)c(O)c(-c3ccc4nc(N5CC[C@@H](NC6(C)CC6)C5)ccc4n3)cc2o1 (single isomer, unassigned) under Target C had pIC50 of > 7.00

###

System: MYB mRNA
Test method notes: RT-qPCR splicing assay, MYB mRNA canonical (CJ) and alternative (AJ) junction
Assay type: cell-based, human
Test conditions: Homo sapiens, MYB canonical junction mRNA, RT-qPCR; read-out: MYB CJ (decrease in CJ mRNA levels, IC50)
Attribute measured: IC50

So, CCC1CN(c2ccc3nc(-c4cc5cn(C)nc5cc4O)ccc3n2)CCN1 (stereo not drawn) [Compound 119] ? Its IC50 was 0.1 to 1 µM

###

Test system: HTT
Test method notes: HiBiT protein abundance assay, HTT (K562 HiBiT knock-in)
Format: cell-based, human
Test conditions: HiBiT knock-in K562 cells, 24 hours, top dose 10 μM
pIC50: −log10 of the molar value. Where a name gives a salt, the structure may show the parent alone.
Attribute measured: pIC50

Sample answers from the record:
INSERT INTO results (compound, result) VALUES
  ('CCN1CCC(c2ccc3nc(-c4cc5cn(C)nc5cc4O)ccc3n2)CC1', '6.00 to 7.00'),
  ('Cc1nc2c(C)c(O)c(-c3ccc4nc(N5CC[C@H](NC6CC6)C5)ncc4n3)cc2o1', '> 7.00'),
  ('Cc1c(O)c(-c2ccc3nc(N4CC[C@H](N[C@H]5C[C@H](F)C5)C4)ccc3n2)cc2cn(C)nc12 (single isomer, unassigned)', '> 7.00');

pIC50 recorded for this compound, Cn1cc2cc(-c3ccc4nc(N5CC[C@@H](NC(C)(C)C)C5)ccc4n3)c(O)c(F)c2n1 (single isomer, unassigned) , is > 7.00

Entry Cn1cc2cc(-c3ccc4nc(N5CC[C@@H](NC6(C)CC6)C5)ccc4n3)c(O)cc2n1 , pIC50 reported as > 7.00

Documented pIC50 of Cc1nc2c(C)c(O)c(-c3ccc4nc(N5CC[C@H](N[C@H]6C[C@@H](F)C6)C5)ccc4n3)cc2o1 (stereo in doubt) : > 7.00

The recorded pIC50 for entry Cc1nc2cc(O)c(-c3ccc4nc(N5CC[C@H](NC(C)(C)C)C5)ncc4n3)cc2o1 equals 6.00 to 7.00

For this compound ( Cn1cc2cc(-c3ccc4nc(N5CC[C@H](NC6CC6)C5)ccc4n3)c(O)cc2n1 ), measured pIC50 is > 7.00

pIC50 reported for this compound Cc1nc2cc(O)c(-c3ccc4nc(N5CCN[C@H](C6CC6)C5)ccc4n3)cc2o1 : 6.00 to 7.00

Notebook: Cc1c(O)c(-c2ccc3nc(N4CC[C@H](NC(C)(C)C)C4)ccc3n2)cc2cn(C)nc12 , pIC50 read as > 7.00

What the record says about C[C@@H]1CN(c2ccc3nc(-c4cc5cn(C)nc5c(F)c4O)ncc3c2)C[C@@H](C)N1 : pIC50 is 6.00 to 7.00

The reported pIC50 of the compound Cc1nc2c(C)c(O)c(-c3ccc4nc(N5CC[C@@H](NC(C)(C)C)C5)ccc4n3)cc2o1 was > 7.00

Lab note: measured pIC50 of Cc1c(O)c(-c2ccc3nc(N4CC[C@@H](NC(C)C)C4)ccc3n2)cc2cn(C)nc12 (single isomer, unassigned) was > 7.00

Memo: C[C@@H]1CN(c2ccc3nc(-c4cc5cn(C)nc5cc4O)ncc3c2)C[C@H](C)N1 [Compound 751, hydrochloride] , reported pIC50: < 5.00

Lab book: pIC50 of C[C@H]1C[C@@H](c2ccc3nc(-c4cc5cn(C)nc5cc4O)ccc3n2)CCN1 noted as 6.00 to 7.00

pIC50 measured on Cn1cc2cc(-c3ccc4nc(N5CCC56CCCNC6)ccc4n3)c(O)cc2n1 (centres unmarked) = 5.00 to 6.00

GET /value?item= Cc1c(O)c(-c2ccc3nc(N4CCC(NC5CCC5)C4)ccc3n2)cc2cn(C)nc12 (centres unmarked) &field=pIC50 returns > 7.00

The recorded pIC50 for C[C@H]1C[C@H](c2ccc3nc(-c4cc5cn(C)nc5c(F)c4O)ccc3n2)CCN1 (single isomer, unassigned) is > 7.00

Briefly, pIC50 measured for Cn1cc2cc(-c3nc(C4CC4)c4cc(N5CCNCC5)ccc4n3)c(O)c(F)c2n1 : 5.00 to 6.00

Noted for Cn1cc2cc(-c3ccc4nc(N5CC[C@@H](NC6CC(F)(F)C6)C5)ccc4n3)c(O)cc2n1 : its pIC50 reads > 7.00

The compound listed as Cn1cc2cc(-c3ccc4nc(N5CCC(NC6(C)CC6)C5)ccc4n3)c(O)cc2n1 (centres unmarked) shows pIC50 equal to > 7.00

###

System: HTT
Test method notes: HiBiT protein abundance assay, HTT (K562 HiBiT knock-in)
Assay type: cell-based, human
Test conditions: HiBiT knock-in K562 cells, 24 hours, top dose 10 μM
pIC50: −log10 of the molar value.
# maps each entry to its pIC50

Solved cases below.
INSERT INTO assay_data (compound, attribute_measured, result) VALUES
  ('Cc1nc2cc(O)c(-c3ccc4nc(N5CC[C@@H](N(C)C(C)(C)C)C5)ccc4n3)cc2o1', 'pIC50', '> 7.00'),
  ('CNC(=O)c1nc(-c2cc3cn(C)nc3c(C)c2O)nc2ccc(N3C[C@@H](C)N[C@@H](C)C3)nc12', 'pIC50', '5.00 to 6.00'),
  ('Cn1cc2cc(-c3ccc4cc(C5CCNCC5)ccc4n3)c(O)cc2n1', 'pIC50', '> 7.00'),
  ('Cn1cc2cc(O)c(-c3ccc4nc(C5CCNCC5)ccc4n3)cc2n1', 'pIC50', '5.00 to 6.00'),
  ('Cc1nc2c(F)c(O)c(-c3ccc4nc(N5CC[C@H](N[C@H]6C[C@@H](F)C6)C5)ccc4n3)cc2o1', 'pIC50', '> 7.00'),
  ('Cc1nc2c(C)c(O)c(-c3ccc4nc(N5CC[C@@H](NCC6CC6)C5)ccc4n3)cc2o1 (single isomer, unassigned)', 'pIC50', '> 7.00');

Now examine the next entry.
Tested on HTT, the item C[C@H]1CN(c2ccc3nc(-c4cc5cn(C)nc5cc4O)nc(C(N)=O)c3c2)C[C@H](C)N1 showed pIC50 equal to 6.00 to 7.00

###

System: HTT mRNA
Test method notes: RT-qPCR splicing assay, HTT mRNA canonical (CJ) and alternative (AJ) junction
Assay type: cell-based, human
Test conditions: Homo sapiens, HTT canonical junction mRNA, RT-qPCR; read-out: HTT CJ (decrease in CJ mRNA levels, IC50)
pIC50: −log10 of the molar value.
The entries below come with measured pIC50 values attached.

Reference set, count: 3
INSERT INTO measurements (molecule, attribute_measured, result) VALUES
  ('Cc1nc2cc(O)c(-c3ccc4nc(N5C[C@@H](C)N[C@@H](C)C5)ccc4n3)cc2o1', 'pIC50', '6.00 to 7.00'),
  ('Cc1cn2cc(-c3ccc4cc(N5CCNCC5)cc(F)c4n3)cc(F)c2n1', 'pIC50', '6.00 to 7.00'),
  ('Cc1c(O)c(-c2ccc3nc(N4CC[C@H](NC5CCC5)C4)ccc3n2)cc2cn(C)nc12 (single isomer, unassigned)', 'pIC50', '> 7.00');

Consider the additional molecule presented here.
The value of pIC50 measured for the molecule Cc1nc2c(C)c(O)c(-c3ccc4nc(N5CC[C@H](NC6CC6)C5)ncc4n3)cc2o1 turned out to be > 7.00
